Each entry below lists one item and its recorded log10 half-life at 50 nM value.
assay-method-text: Stability in 20% w/v rat liver homogenate
Format: in vitro ADME
condition-notes: rat, 20% w/v rat liver homogenate, rat liver homogenate, 37°C; read-out: Rat Liver Compd t 1/2
Answers are given as log10 of half-life at 50 nM in min.

Some molecules with recorded log10 half-life at 50 nM:
{"query-smiles": "CCCCCCCCCCCCCCCC(=O)NCCOC(=O)[C@@H](N)C(C)C.Cl", "log10 half-life at 50 nM": 1.41}
{"query-smiles": "CCCCCCCCCCCCCCCC(=O)NCCOC(=O)N[C@@H](C)C(=O)O", "log10 half-life at 50 nM": 1.46}
{"query-smiles": "CCCCCCCCCCCCCCCC(=O)NCCOC(=O)[C@H](N)CC(N)=O.Cl", "log10 half-life at 50 nM": 1.74}

Now, please, on to the next molecule.
Please look up its log10 half-life at 50 nM: CCCCCCCCCCCCCCCC(=O)N[C@H](C)COC(=O)[C@@H](N)C(C)C.Cl
1.58

Recorded values, source paper PMC4460047.
